- System: A498
- Method: AUC of dose-response viability curve, drug + dasatinib, normalised to DMSO (arbitrary (AUC of normalised viability)); higher = less growth inhibition
- Conditions used: treatment: drug + dasatinib (fixed dose, not stated); 5 days
Assay readout: AUC of dose-response viability curve
Answers are plain numbers.

State the recorded AUC of dose-response viability curve for every item in the following list.
1. O=C(Nc1cc(C(F)(F)F)cc(C(F)(F)F)c1)c1cc(Cl)ccc1O [IMD 0354] + Cc1nc(Nc2ncc(C(=O)Nc3c(C)cccc3Cl)s2)cc(N2CCN(CCO)CC2)n1
2. O=C1c2ccccc2-c2n[nH]c3cccc1c23 + Cc1nc(Nc2ncc(C(=O)Nc3c(C)cccc3Cl)s2)cc(N2CCN(CCO)CC2)n1
3. O=C(NOC[C@H](O)CO)c1ccc(F)c(F)c1Nc1ccc(I)cc1F + Cc1nc(Nc2ncc(C(=O)Nc3c(C)cccc3Cl)s2)cc(N2CCN(CCO)CC2)n1
4. C=CC(=O)Nc1cccc(Oc2nc(Nc3ccc(N4CCN(C)CC4)cc3)ncc2Cl)c1 [WZ3146] + Cc1nc(Nc2ncc(C(=O)Nc3c(C)cccc3Cl)s2)cc(N2CCN(CCO)CC2)n1
5. Nc1ncnc2c1c(-c1cccc(OCc3ccccc3)c1)cn2[C@H]1C[C@H](CN2CCCC2)C1 [NVP-ADW742] + Cc1nc(Nc2ncc(C(=O)Nc3c(C)cccc3Cl)s2)cc(N2CCN(CCO)CC2)n1

1. 2.92
2. 3.27
3. 1.85
4. 2.76
5. 3.18

---

Assignment: determine reported GI50, drug alone for the given compounds.
- Tested on: 769-P
- Method: GI50, drug alone; higher = less potent
- Conditions used: treatment: drug alone; 5 days

CCS(=O)(=O)c1cccc(-c2cc(C(=O)NC3CCN(C)CC3)c(C)c3[nH]c4ncc(C)cc4c23)c1
> 10 µM
C=CC(=O)N1CCC[C@@H](n2nc(-c3ccc(Oc4ccccc4)cc3)c3c(N)ncnc32)C1
1.83 µM
COc1cc(Nc2ncc(F)c(Nc3ccc4c(n3)NC(=O)C(C)(C)O4)n2)cc(OC)c1OC.O=S(=O)(O)c1ccccc1
> 10 µM
CC(C)c1cnn2c(NCc3ccccc3)cc(NCCCCCCN)nc12.Cl [BS-181 HCl]
> 10 µM
O=C(Nc1ccc(OC(F)(F)F)cc1)c1sccc1NCc1ccnc2ccccc12
> 10 µM
CS(=O)(=O)O.N#CC1(c2ccc(NC(=O)c3cccnc3NCc3ccncc3)cc2)CCCC1
> 10 µM

State the recorded GI50, drug alone for every item in the following list.
1. Cc1cc(CN2CCN(c3c(Br)cnc4[nH]c(-c5ccc(N6CCN(C)CC6)cc5)nc34)CC2)no1
2. COC(=O)c1ccc2c(c1)NC(=O)/C2=C(\Nc1ccc(N(C)C(=O)CN2CCN(C)CC2)cc1)c1ccccc1
3. NC(=O)Nc1sc(-c2ccc(F)cc2)cc1C(N)=O
4. COCC[n+]1c2c(n(Cc3cnccn3)c1C)C(=O)c1ccccc1C2=O
5. CS(=O)(=O)O.Cc1ccc(NC(=O)c2ccc(CN3CCN(C)CC3)cc2)cc1Nc1nccc(-c2cccnc2)n1 [Imatinib Mesylate]
6. O=c1cc(N2CCOCC2)oc2c(-c3ccccc3)cccc12

1: 0.858 µM; 2: > 10 µM; 3: > 10 µM; 4: 0.0145 µM; 5: > 10 µM; 6: > 10 µM

---

Assignment: determine reported GI50, drug alone for the given molecules.
- System: TK-10
- Method: GI50, drug alone; higher = less potent
- Conditions used: treatment: drug alone; 5 days
Numbers only, in nM.

These recorded examples may help you get a feel for the data.
c1ccc2c(CCNc3ccc(Nc4ccncc4)cc3)c[nH]c2c1
1030
CCN1CCN(Cc2ccc(-c3cc4c(N[C@H](C)c5ccccc5)ncnc4[nH]3)cc2)CC1
581
Cc1ccc(C(=O)Nc2ccc(CN3CCN(C)CC3)c(C(F)(F)F)c2)cc1C#Cc1cnc2cccnn12
531

Now look at this one.
Consider the molecule `NC(=O)Nc1sc(-c2ccc(F)cc2)cc1C(N)=O` and give its measured GI50, drug alone.
1780

---

- Tested on: A498
- Method: minimum viability across doses, drug + dasatinib, relative to DMSO (fraction); higher = less growth inhibition
- Conditions used: treatment: drug + dasatinib (fixed dose, not stated); 5 days
Assay readout: minimum viability across doses
Numbers only.

These recorded examples may help you get a feel for the data.
CCc1cc(Nc2nccc(-c3c(-c4ccc(OC)c(C(=O)Nc5c(F)cccc5F)c4)nc4ccccn34)n2)c(OC)cc1N1CCC(N2CCN(S(C)(=O)=O)CC2)CC1 + Cc1nc(Nc2ncc(C(=O)Nc3c(C)cccc3Cl)s2)cc(N2CCN(CCO)CC2)n1 [dasatinib]
0.849
C[C@@H]1COC(Nc2ccc3ncnc(Nc4ccc(OCc5nccs5)c(Cl)c4)c3c2)=N1 + Cc1nc(Nc2ncc(C(=O)Nc3c(C)cccc3Cl)s2)cc(N2CCN(CCO)CC2)n1 [dasatinib]
0.988
CN1CCN(c2cccc(Nc3nc4c(-c5ccc(S(C)(=O)=O)cc5)cccn4n3)c2)CC1 + Cc1nc(Nc2ncc(C(=O)Nc3c(C)cccc3Cl)s2)cc(N2CCN(CCO)CC2)n1 [dasatinib]
1.02

Consider the molecule CCOc1cc2ncc(C#N)c(Nc3ccc(F)c(Cl)c3)c2cc1NC(=O)/C=C/CN(C)C [Pelitinib (EKB-569)] + Cc1nc(Nc2ncc(C(=O)Nc3c(C)cccc3Cl)s2)cc(N2CCN(CCO)CC2)n1 [dasatinib] and give its measured minimum viability across doses.
0.0177

---

- Tested on: 769-P
- Method: GI50 of drug in presence of dasatinib; higher = less potent
- Conditions used: treatment: drug + dasatinib (fixed dose, not stated); 5 days
Assay readout: GI50 of drug

These recorded examples may help you get a feel for the data.
CN(C)Cc1cccc(N/C(=C2\C(=O)Nc3cc(C(=O)N(C)C)ccc32)c2ccccc2)c1 + Cc1nc(Nc2ncc(C(=O)Nc3c(C)cccc3Cl)s2)cc(N2CCN(CCO)CC2)n1 [dasatinib]
> 10 µM
CS(=O)c1ccc(-c2nc(-c3ccc(F)cc3)c(-c3ccncc3)[nH]2)cc1 (stereo not drawn) + Cc1nc(Nc2ncc(C(=O)Nc3c(C)cccc3Cl)s2)cc(N2CCN(CCO)CC2)n1 [dasatinib]
> 10 µM

Now look at this one.
Consider the molecule N#CC[C@H](C1CCCC1)n1cc(-c2ncnc3[nH]ccc23)cn1 + Cc1nc(Nc2ncc(C(=O)Nc3c(C)cccc3Cl)s2)cc(N2CCN(CCO)CC2)n1 [dasatinib] and give its measured GI50 of drug.
> 10 µM

---

- Test system: ACHN
- Method: minimum viability across doses, drug + dasatinib, relative to DMSO (fraction); higher = less growth inhibition
- Conditions used: treatment: drug + dasatinib (fixed dose, not stated); 5 days
Assay readout: minimum viability across doses
Answers are plain numbers.

These recorded examples may help you get a feel for the data.
Cl.Cl.NC1(c2ccc(-c3nc4ccn5c(=O)[nH]nc5c4cc3-c3ccccc3)cc2)CCC1 [MK-2206 dihydrochloride] + Cc1nc(Nc2ncc(C(=O)Nc3c(C)cccc3Cl)s2)cc(N2CCN(CCO)CC2)n1 [dasatinib]
0.202
C[C@@H](Oc1cc(-n2cnc3ccc(CN4CCN(C)CC4)cc32)sc1C(N)=O)c1ccccc1C(F)(F)F + Cc1nc(Nc2ncc(C(=O)Nc3c(C)cccc3Cl)s2)cc(N2CCN(CCO)CC2)n1 [dasatinib]
0.0897
COc1cc(Nc2ncc(F)c(Nc3ccc4c(n3)NC(=O)C(C)(C)O4)n2)cc(OC)c1OC [R406(free base)] + Cc1nc(Nc2ncc(C(=O)Nc3c(C)cccc3Cl)s2)cc(N2CCN(CCO)CC2)n1 [dasatinib]
0.0361

State the recorded minimum viability across doses for every item in the following list.
1. Br.Cc1ccc(C(=O)Cn2c3c(sc2=N)CCCC3)cc1 [Pifithrin-α] + Cc1nc(Nc2ncc(C(=O)Nc3c(C)cccc3Cl)s2)cc(N2CCN(CCO)CC2)n1 [dasatinib]
2. COc1cc(CCc2cc(NC(=O)c3ccc(N4C[C@@H](C)N[C@@H](C)C4)cc3)n[nH]2)cc(OC)c1 [AZD4547] + Cc1nc(Nc2ncc(C(=O)Nc3c(C)cccc3Cl)s2)cc(N2CCN(CCO)CC2)n1 [dasatinib]
3. NC(=O)Nc1cc(-c2cccc(F)c2)sc1C(=O)N[C@H]1CCCNC1 [AZD7762] + Cc1nc(Nc2ncc(C(=O)Nc3c(C)cccc3Cl)s2)cc(N2CCN(CCO)CC2)n1 [dasatinib]

1. 0.391
2. 0.14
3. 0.0359

---

Assignment: determine reported AUC of dose-response viability curve for the given molecules.
- System: 786-O
- Method: AUC of dose-response viability curve, drug + dasatinib, normalised to DMSO (arbitrary (AUC of normalised viability)); higher = less growth inhibition
- Conditions used: treatment: drug + dasatinib (fixed dose, not stated); 5 days
One number for each entry.

These recorded examples may help you get a feel for the data.
CCCS(=O)(=O)Nc1ccc(F)c(C(=O)c2c[nH]c3ncc(-c4ccc(Cl)cc4)cc23)c1F [Vemurafenib (PLX4032)] + Cc1nc(Nc2ncc(C(=O)Nc3c(C)cccc3Cl)s2)cc(N2CCN(CCO)CC2)n1
2.11
CN1CCN(c2ccc([N+](=O)[O-])c3no[n+]([O-])c23)CC1 + Cc1nc(Nc2ncc(C(=O)Nc3c(C)cccc3Cl)s2)cc(N2CCN(CCO)CC2)n1
2.2
Nc1cc(C(F)(F)F)c(-c2cc(N3CCOCC3)nc(N3CCOCC3)n2)cn1 [BKM120 (NVP-BKM120)] + Cc1nc(Nc2ncc(C(=O)Nc3c(C)cccc3Cl)s2)cc(N2CCN(CCO)CC2)n1
1.29
CN(C)Cc1cccc(N/C(=C2\C(=O)Nc3cc(C(=O)N(C)C)ccc32)c2ccccc2)c1 + Cc1nc(Nc2ncc(C(=O)Nc3c(C)cccc3Cl)s2)cc(N2CCN(CCO)CC2)n1
2.19

Now look at this one.
Consider the molecule CN1CC[C@H](c2c(O)cc(O)c3c(=O)cc(-c4ccccc4Cl)oc23)[C@H](O)C1.Cl [Flavopiridol hydrochloride] + Cc1nc(Nc2ncc(C(=O)Nc3c(C)cccc3Cl)s2)cc(N2CCN(CCO)CC2)n1 and give its measured AUC of dose-response viability curve.
0.837
